Test system: SK-MEL-2 melanoma
Assay notes: NCI tumour cell line growth inhibition, 48 h
Metric: TGI

CC1=C(C(=O)NCc2ccccc2)C(c2ccc([N+](=O)[O-])cc2)C(C(=O)NCc2ccccc2)=C(C)N1: > 100 µM

Recall the reported TGI of CN(CC#N)C1CCCC[C@H]1O (stereo not given in full) when tested on SK-MEL-2 melanoma.
> 100 µM

Recall the reported TGI of Nc1ncc(Cl)c(NCC2(CO)CC(CCc3ccccc3)C2)n1 (stereo not given) when tested on SK-MEL-2 melanoma.
> 100 µM

Recall the reported TGI of `Cc1ccc(C(=O)Nc2ccc(S(=O)(=O)O)c3cc(S(=O)(=O)O)cc(S(=O)(=O)O)c23)cc1NC(=S)Nc1cc(C(=O)Nc2ccc(S(=O)(=O)O)c3cc(S(=O)(=O)O)cc(S(=O)(=O)O)c23)ccc1C` when tested on SK-MEL-2 melanoma.
> 75 µM

Recall the reported TGI of `CS(=O)(=O)c1c(N)c2nc(Cl)cn2c2nc3ccccc3nc12` when tested on SK-MEL-2 melanoma.
> 100 µM

---

Test system: MOLT-4 leukemia
Assay notes: NCI tumour cell line growth inhibition, 48 h
Metric: TGI

Example compounds with recorded TGI:
COc1ccc(C(=O)C(c2ccc(OC)cc2)C2OC(=O)C(Cl)=C2Cl)cc1 (stereo not drawn): > 100 µM
S=P1(N2CCCCC2)Oc2ccc3ccccc3c2-c2c(ccc3ccccc23)O1: > 100 µM
NCCN.NCCN.O=C[O-].O=C[O-].[Co+3].[O-][Cl+3]([O-])([O-])[O-]: > 100 µM
CCOC(=O)Cc1csc2[n+]1C(=O)/C(=C/c1cccc(OC)c1O)S2: > 100 µM
O=C(/C=C/C=C/c1c(C2CC2)nc2ccccc2c1-c1ccc(F)cc1)c1cccs1: > 100 µM
CN(CCO)c1nc(N)cc(=O)[nH]1: > 100 µM
CC(=O)O[C@H]1CCC2[C@@H]3CCC4=C(O)C(=O)C(C#N)C[C@]4(C)C3CC[C@@]21C (stereo partly drawn): > 100 µM
c1ccc(C2=NOC3(c4ccccc4)SC4CCCCC4CN23)cc1 (stereo not drawn): 51.3 µM
CC1=CCC2C3(C)CCC2(C(C)C)C1C3 (stereo not drawn) (tested in a mixture with another compound): 75.3 µM
COc1cc(C)cc2c1c(=O)c1ccccc1n2C: > 100 µM

Answer with reported TGI of COC(=O)C1c2c(c3ccccc3n2C(=O)OC)CCN2CCC1C(S(=O)(=O)c1ccccc1)C2=O (stereo not drawn)
> 100 µM

Answer with reported TGI of OC(COc1ccc(F)cc1)Cn1cnc2c(Cl)ncnc21 (stereo not drawn)
> 100 µM

Answer with reported TGI of `Cc1c2c(n(CCc3ccccc3)c1C)N(C)N=C(C#N)S2(=O)=O`
> 100 µM

Answer with reported TGI of `Cc1cc(Nc2c3ccccc3nc3ccccc23)ccc1NS(C)(=O)=O`
9.61 µM

Answer with reported TGI of `O=C(C[n+]1ccccc1)N/N=C(\Cc1nc2ccc([N+](=O)[O-])cc2[nH]c1=O)C(=O)Nc1cc(Cl)c(Cl)cc1Cl`
> 100 µM

Answer with reported TGI of `CS(=O)(=O)CCNCc1ccc(-c2ccc3ncnc(Nc4ccc(OCc5cccc(F)c5)c(C(F)(F)F)c4)c3c2)o1`
11.1 µM

Answer with reported TGI of `CCCCSC1=N/C(=C\c2ccc(N(C)C)cc2)C(NN)=N1`
> 100 µM

Answer with reported TGI of `CCOC(=O)C(C(=O)c1ccccc1C(=O)OC)=P(c1ccccc1)(c1ccccc1)c1ccccc1`
> 10 µM

Answer with reported TGI of CC(=O)OC1CC2Oc3ccc(C)cc3C(C)(O2)C1=O (stereo not drawn)
> 100 µM
